Biological target: T1, Human CD3eg linker (human)
T1 construct: Single chain: epsilon and gamma subunits of human CD3 joined by a 29-mer linker, Flag-tag at the C-terminus; also called recombinant human CD3
T1 chain: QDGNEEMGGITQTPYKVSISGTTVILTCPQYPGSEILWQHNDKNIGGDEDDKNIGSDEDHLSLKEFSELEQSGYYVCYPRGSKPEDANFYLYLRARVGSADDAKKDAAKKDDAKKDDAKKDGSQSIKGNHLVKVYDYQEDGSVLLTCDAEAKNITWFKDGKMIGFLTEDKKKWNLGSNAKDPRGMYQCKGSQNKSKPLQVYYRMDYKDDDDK
Assay: Biacore SPR, vs template H183/L072
Can you tell me fold change of affinity for the items I'm about to list?
Numbers only, in fold.

Check out these entries, answers already filled in.
- binder: "H183/L072 VH G52cI (antibody, name in Kabat numbering, V domains shown) VH: QVQLVESGGGLVQPGRSLRLSCAASGFTFSNAWMHWVRQAPGKGLEWVAQIKDKINAYAAYYAPSVKGRFTISRDDSKNSIYLQMNSLKTEDTAVYYCHYVHYASASTVLPAFGVDAWGQGTTVTVSS VL: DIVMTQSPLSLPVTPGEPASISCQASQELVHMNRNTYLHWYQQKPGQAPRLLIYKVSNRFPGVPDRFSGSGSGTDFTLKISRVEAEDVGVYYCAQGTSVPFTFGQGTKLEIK"
  fold change of affinity, fold: 1.1
- binder: "H183/L072 VH V100cM (antibody, name in Kabat numbering, V domains shown) VH: QVQLVESGGGLVQPGRSLRLSCAASGFTFSNAWMHWVRQAPGKGLEWVAQIKDKGNAYAAYYAPSVKGRFTISRDDSKNSIYLQMNSLKTEDTAVYYCHYVHYASASTMLPAFGVDAWGQGTTVTVSS VL: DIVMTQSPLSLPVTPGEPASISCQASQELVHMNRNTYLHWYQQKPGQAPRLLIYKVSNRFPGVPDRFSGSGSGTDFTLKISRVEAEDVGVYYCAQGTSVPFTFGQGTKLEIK"
  fold change of affinity, fold: 1.2

// next item, fold change of affinity requested
Please report the measured fold change of affinity for H183/L072 VH Y55V (antibody, name in Kabat numbering, V domains shown) VH: QVQLVESGGGLVQPGRSLRLSCAASGFTFSNAWMHWVRQAPGKGLEWVAQIKDKGNAVAAYYAPSVKGRFTISRDDSKNSIYLQMNSLKTEDTAVYYCHYVHYASASTVLPAFGVDAWGQGTTVTVSS VL: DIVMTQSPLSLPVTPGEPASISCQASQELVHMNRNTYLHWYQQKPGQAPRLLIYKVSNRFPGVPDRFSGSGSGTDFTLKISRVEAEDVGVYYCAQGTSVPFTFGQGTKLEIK
0.3
